The reported measurements were obtained from patent US10562947B2.

Kindly supply the reported PKCγ(h) % activity values for the records listed here.
Biological target: PKCγ(h) (Homo sapiens, UniProt P05129)
Test: Kinase Profiling Assay
Format: biochemical
Conditions: 100 μM peptide
Numbers only here, please. The scale is %.

Request: What value of measured PKCγ(h) % activity is listed for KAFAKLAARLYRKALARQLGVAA [MMI-0400] ?
Response: 79

Request: If you can, please state the reported PKCγ(h) % activity value of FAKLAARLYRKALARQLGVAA [MMI-0300] .
Response: 89

Request: Given the entry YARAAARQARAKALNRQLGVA (Mammalian) [MMI-0200] , report its measured PKCγ(h) % activity.
Response: 101

Request: Reported PKCγ(h) % activity, sequence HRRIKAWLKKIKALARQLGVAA (Mammalian) [MMI-0500] : ____
Response: 6
